Value source: patent US20250361322A1

The following binders are listed with their measured pEC50 values.
target: T1, human Tissue Factor on human TF-positive cells (human, UniProt P13726 33-295); assay: flow cytometry, titration of unconjugated antibody on HCT-116 cells (human TF), 4-parameter fit of MFI
T1 construct: also called hTF; CD142
pEC50: −log10 of the molar value.

| binder | pEC50 |
| --- | --- |
| 39A (antibody, human IgG1, V domains shown, Human IgG1; also called antibody designated 39A) VH: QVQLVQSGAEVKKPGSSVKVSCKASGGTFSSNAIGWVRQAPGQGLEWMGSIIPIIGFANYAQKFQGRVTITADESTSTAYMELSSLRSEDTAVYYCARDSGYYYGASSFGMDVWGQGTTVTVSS VL: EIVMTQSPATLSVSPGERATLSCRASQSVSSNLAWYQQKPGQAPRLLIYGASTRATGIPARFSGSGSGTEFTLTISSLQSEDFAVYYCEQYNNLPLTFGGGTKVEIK | 10.05 |
| 25A (antibody, human IgG1, V domains shown, Human IgG1; also called antibody designated 25A) VH: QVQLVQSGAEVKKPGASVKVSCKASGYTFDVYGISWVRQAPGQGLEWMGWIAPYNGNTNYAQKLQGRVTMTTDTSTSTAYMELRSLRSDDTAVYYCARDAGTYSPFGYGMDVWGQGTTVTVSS VL: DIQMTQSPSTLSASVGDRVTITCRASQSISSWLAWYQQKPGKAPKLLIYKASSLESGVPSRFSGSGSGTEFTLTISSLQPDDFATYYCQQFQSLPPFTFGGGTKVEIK | 9.60 |
| 25A3 (antibody, human IgG1, V domains shown, Human IgG1; also called antibody designated 25A3) VH: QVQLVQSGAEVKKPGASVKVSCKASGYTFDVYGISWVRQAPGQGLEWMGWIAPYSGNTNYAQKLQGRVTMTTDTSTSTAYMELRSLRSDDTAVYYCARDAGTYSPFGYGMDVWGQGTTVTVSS VL: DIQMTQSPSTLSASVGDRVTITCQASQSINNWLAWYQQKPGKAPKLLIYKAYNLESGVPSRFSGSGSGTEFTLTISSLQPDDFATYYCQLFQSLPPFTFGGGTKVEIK | 9.80 |
